# STUDY_TARGET: Alpha-1A adrenergic receptor (Homo sapiens, UniProt P35348)
# Sequence (P35348 whole entry): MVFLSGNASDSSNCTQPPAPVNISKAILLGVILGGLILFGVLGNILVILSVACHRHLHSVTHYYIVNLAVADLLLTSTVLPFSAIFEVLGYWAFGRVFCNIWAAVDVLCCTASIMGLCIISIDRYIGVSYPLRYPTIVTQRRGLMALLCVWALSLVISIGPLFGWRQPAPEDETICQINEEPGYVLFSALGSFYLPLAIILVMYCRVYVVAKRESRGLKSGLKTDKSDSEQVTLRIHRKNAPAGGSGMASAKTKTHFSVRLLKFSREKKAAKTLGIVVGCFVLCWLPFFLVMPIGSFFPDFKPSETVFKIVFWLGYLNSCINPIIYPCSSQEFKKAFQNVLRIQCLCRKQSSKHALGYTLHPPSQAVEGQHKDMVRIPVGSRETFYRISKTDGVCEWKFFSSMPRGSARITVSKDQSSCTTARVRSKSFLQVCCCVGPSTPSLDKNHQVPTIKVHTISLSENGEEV
# ASSAY: Binding affinity to adrenergic alpha1A receptor (unknown origin)
# MEASUREMENT_PARAMETERS: read-out: Ki
I'd appreciate it if you could supply pKi values for the items below.
pKi here: minus log base 10 of the concentration, concentration in moles per litre.

Inquiry: Fill in reported pKi for this entry: COc1cccc(OC)c1OCCNC[C@@H]1C(=O)c2ccccc2C[C@H]1c1ccccc1
Reply text: 8.06

Inquiry: Fill in reported pKi for this entry: CC(C)Oc1ccccc1N1CCN(CCN2C(=O)CC3(CCCC3)CC2=O)CC1
Reply text: 8.55

Inquiry: Fill in reported pKi for this entry: COc1cc2nc3c(c(N)c2cc1OC)CCC(CNC(=O)c1ccoc1)C3 (stereo not given)
Reply text: 7.02

Inquiry: Fill in reported pKi for this entry: COc1cccc(OC)c1OCCN[C@H]1C[C@@H](c2ccccc2)c2ccccc2S1
Reply text: 10.10

Inquiry: Fill in reported pKi for this entry: COc1ccccc1N1CCN(CC2CO[C@@H](c3cccc4ccccc34)O2)CC1 (stereo not given in full)
Reply text: 7.44

Inquiry: Fill in reported pKi for this entry: O=C1CC2(CCCC2)CC(=O)N1CCN1CCCN(c2ccccc2Cl)CC1
Reply text: 6.63

Inquiry: Fill in reported pKi for this entry: O=C1CC2(CCCC2)CC(=O)N1CCCCN1CCN(c2cc(Cl)ccc2Cl)CC1
Reply text: 8.84

Inquiry: Fill in reported pKi for this entry: C[N+](C)(CCOc1ccccc1)CC1COC(c2ccccc2)(c2ccccc2)O1 (stereo not given)
Reply text: 7.61

Inquiry: Fill in reported pKi for this entry: COc1cccc(OC)c1OCCNC1COCC(c2ccccc2)(c2ccccc2)O1 (stereo not given)
Reply text: 6.47

Inquiry: Fill in reported pKi for this entry: COc1cc2nc3c(c(N)c2cc1OC)CCC(CNCOc1c(OC)cccc1OC)C3 (stereo not given)
Reply text: 5.77

Inquiry: Fill in reported pKi for this entry: O=C1CC2(CCCC2)CC(=O)N1CCN1CCN(c2cc(F)ccc2Cl)CC1
Reply text: 7.06

Inquiry: Fill in reported pKi for this entry: COc1cccc(OC)c1OCCN[C@H]1C[C@@H](c2ccccc2)c2ccccc2O1
Reply text: 10.30

Inquiry: Fill in reported pKi for this entry: O=C1CC2(C=CN1CCN1CCN(c3ccccc3Cl)CC1)CCCC2
Reply text: 7.37

Inquiry: Fill in reported pKi for this entry: Cc1ccc(Cl)c(N2CCN(CCN3C(=O)CC4(CCCC4)CC3=O)CC2)c1
Reply text: 7.00

Inquiry: Fill in reported pKi for this entry: COc1cccc(OC)c1OCCN[C@H]1COC[C@H](c2ccccc2)O1
Reply text: 6.33
